# Assay System: nanoKAZ luciferase (Oplophorus gracilirostris, UniProt Q9GV45, A31E/A60N/A81I/F95D/I117V/K70R/L54V/L99Q/M102K/N193R/P142E/Q151K/Q38R/Q45L/V71I/Y165I)
# Construct: luciferase catalytic domain (nanoKAZ, 19 kDa) from the Oplophorus-derived luciferase; host or cells: cell-free: 1-Step Human Coupled IVT Kit, pT7CFE1-based vector
# Sequence (Q9GV45 other isoform, or with tags, fused parts or gaps with the stated changes): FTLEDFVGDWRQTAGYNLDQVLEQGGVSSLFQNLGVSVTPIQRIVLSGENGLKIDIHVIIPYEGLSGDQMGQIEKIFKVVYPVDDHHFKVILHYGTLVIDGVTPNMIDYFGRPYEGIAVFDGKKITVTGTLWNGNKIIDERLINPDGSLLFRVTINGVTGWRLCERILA
# Test Protocol: In vitro bioluminescence screening of imidazo[1,2-a]pyrazin-3(7H)-ones with nanoKAZ expressed in vitro (96-well luminometer, 2 h kinetic)
# Assay type: biochemical
# Stated Conditions: second table; furimazine = 1
# Method: General protocol for the generation of solutions of imidazo[1,2-a]pyrazin-3(7H)-one Q by acidic hydrolysis of imidazo[1,2-a]pyrazin-3-yl acetate derivatives P. The considered acetate P (1 mg) was dissolved in DMSO (0.2 mL) and then diluted by adding a solution of acidic ethanol (0.3 ml) made from the addition of 37% hydrochloric acid (100 μl) on 100% ethanol (12 mL). This 0.5 mL solution was incubated at 50° C. for 2 hours to give a stock solution which was then stored at −80° C. […]
Recorded Endpoint: V3: area under the curve for 2 hours, normalized using furimazine (Q-1) as a reference
Form: value (number only, do not type unit).

smiles_input=Cc1ccc(Cc2nc3c(Cc4cccc(F)c4F)[nH]c(-c4ccccc4)cn-3c2=O)o1 value_observed=3.09

Request: Value lookup for V3: area under the curve for 2 hours, normalized using furimazine (Q-1) as a reference; key = "Cc1ccc(Cc2nc3c(Cc4cccc(F)c4)[nH]c(-c4ccccc4F)cn-3c2=O)o1"
Result: 2.01

Request: Given "O=c1c(Cc2ccco2)nc2c(Cc3cccc(F)c3F)[nH]c(-c3ccccc3)cn1-2" , state its recorded V3: area under the curve for 2 hours, normalized using furimazine (Q-1) as a reference.
Result: 1.04

Request: Please give the measured V3: area under the curve for 2 hours, normalized using furimazine (Q-1) as a reference for this compound: "CCc1cc(Cc2nc3c(Cc4cccc(F)c4F)[nH]c(-c4ccccc4)cn-3c2=O)oc1C"
Result: 0.51

###

Below, each of the molecules is paired with its reported V1: maximum intensity, normalized using furimazine (Q-1) as a reference value.
# Assay System: nanoKAZ luciferase (Oplophorus gracilirostris, UniProt Q9GV45, A31E/A60N/A81I/F95D/I117V/K70R/L54V/L99Q/M102K/N193R/P142E/Q151K/Q38R/Q45L/V71I/Y165I)
# Construct: luciferase catalytic domain (nanoKAZ, 19 kDa) from the Oplophorus-derived luciferase; host or cells: cell-free: 1-Step Human Coupled IVT Kit, pT7CFE1-based vector
# Test Protocol: In vitro bioluminescence screening of imidazo[1,2-a]pyrazin-3(7H)-ones with nanoKAZ expressed in vitro (96-well luminometer, 2 h kinetic)
# Format: biochemical
# Stated Conditions: Table 1; furimazine = 1
Simply state the number, no unit and no words.

molecule=O=c1c(Cc2ccccc2)nc2c(Cc3ccccc3)[nH]c(-c3ccccc3F)cn1-2 value_observed=2
molecule=CCc1ccc(Cc2nc3c(Cc4ccccc4)[nH]c(-c4ccccc4)cn-3c2=O)s1 value_observed=1.71
molecule=Cc1cccc(Cc2nc3c(Cc4ccccc4F)[nH]c(-c4ccccc4)cn-3c2=O)c1 value_observed=1.36
molecule="O=c1c(Cc2ccco2)nc2c(Cc3ccccc3)[nH]c(-c3ccccc3)cn1-2 [Q-1, reference compound]" value_observed=1

Request: May I ask what V1: maximum intensity, normalized using furimazine (Q-1) as a reference has been recorded for "Cc1ccc(Cc2nc3c(Cc4ccccc4)[nH]c(-c4ccccc4F)cn-3c2=O)o1" ?
Result: 2.17
